target: human PKCθ full length enzyme (Homo sapiens); construct: human PKCθ full length enzyme (Panvera Cat# P2996); purchased Panvera P2996; experiment: PKCθ IMAP assay (fluorescence polarization); assay type: biochemical; conditions: human PKCθ full length enzyme, IMAP; average value; read-out: IC50 PKCθ IMAP
So basically, if IC50 comes in under 10 nM it's Condition met, and if it's 10 nM or more it's Condition not met.

{"Substance smiles": "CN(C)S(=O)(=O)c1cccc(-c2cncc(C#N)c2Nc2cccc3[nH]ccc23)c1", "Assigned label": "Condition not met"}
{"Substance smiles": "COc1ccc(-c2cncc(C#N)c2Nc2cnc3[nH]ccc3c2)cc1OC", "Assigned label": "Condition not met"}
{"Substance smiles": "Cc1c(Nc2c(C#N)cncc2-c2cccc3ccccc23)ccc2[nH]ccc12", "Assigned label": "Condition not met"}
{"Substance smiles": "N#Cc1cncc(-c2cc3cc(CNCC4CC4)ccc3s2)c1Nc1cccc2[nH]ccc12", "Assigned label": "Condition met"}
{"Substance smiles": "Cc1c(Nc2c(C#N)cncc2-c2cc3cc(CNCCN4CCCC4)ccc3o2)ccc2[nH]ccc12", "Assigned label": "Condition met"}

Here's an entry: "Cc1c(Nc2c(C#N)cncc2-c2cccc(CN3CCCC3)c2)ccc2[nH]ccc12" . Is its IC50 below 10 nM? Condition met

Check "N#Cc1cncc(-c2ccc(OC[C@@H](N)Cc3ccccc3)cc2)c1Nc1cccc2[nH]ccc12" too. Condition met

Note, next up: "N#Cc1cncc(-c2ccc(OC[C@H](N)Cc3ccccc3)cc2)c1Nc1cccc2[nH]ccc12" Condition not met

====

molecular target: human PKCθ full length enzyme (Homo sapiens); construct: human PKCθ full length enzyme (Panvera Cat# P2996); purchased Panvera P2996; test: PKCθ IMAP assay (fluorescence polarization); type: biochemical; conditions: human PKCθ full length enzyme, IMAP; average value; read-out: IC50 PKCθ IMAP
Answer each item with its documented IC50.
Answers are plain numbers, in nM.

The cases that follow already have their IC50 on record.
{"Compound": "COc1ccc(-c2cncc(C#N)c2Nc2ccc3[nH]ccc3c2)cc1OCCCl [Compound 178]", "Measured target": "human PKCθ full length enzyme (Homo sapiens)", "Value kind": "IC50", "Recorded measurement": 110}
{"Compound": "COc1ccc(-c2cncc(C#N)c2Nc2cccc3[nH]ccc23)cc1OCCCl [Compound 303]", "Measured target": "human PKCθ full length enzyme (Homo sapiens)", "Value kind": "IC50", "Recorded measurement": 40}
{"Compound": "Cc1c(Nc2c(C#N)cncc2-c2cccc3[nH]ccc23)ccc2[nH]ccc12 [Compound 595]", "Measured target": "human PKCθ full length enzyme (Homo sapiens)", "Value kind": "IC50", "Recorded measurement": 46}
{"Compound": "COc1ccc(-c2cncc(C#N)c2Nc2ccc3[nH]ccc3c2)cc1OCCN1CCSCC1 [Compound 233]", "Measured target": "human PKCθ full length enzyme (Homo sapiens)", "Value kind": "IC50", "Recorded measurement": 180}

Please turn your attention to the following entry.
// query IC50 value for entry COc1ccc(-c2cncc(C#N)c2NC[C@H]2CCC[C@@H](CN)C2)cc1OC (relative stereo) [Compound 443] 1130

====

target: human PKCθ full length enzyme (Homo sapiens, UniProt Q04759); construct: human PKCθ full length enzyme (Panvera Cat# P2996); purchased Panvera P2996; assay: PKCθ IMAP assay (fluorescence polarization); format: biochemical; details: human PKCθ full length enzyme, IMAP; average value; read-out: IC50 PKCθ IMAP
Sequence (Q04759 whole entry): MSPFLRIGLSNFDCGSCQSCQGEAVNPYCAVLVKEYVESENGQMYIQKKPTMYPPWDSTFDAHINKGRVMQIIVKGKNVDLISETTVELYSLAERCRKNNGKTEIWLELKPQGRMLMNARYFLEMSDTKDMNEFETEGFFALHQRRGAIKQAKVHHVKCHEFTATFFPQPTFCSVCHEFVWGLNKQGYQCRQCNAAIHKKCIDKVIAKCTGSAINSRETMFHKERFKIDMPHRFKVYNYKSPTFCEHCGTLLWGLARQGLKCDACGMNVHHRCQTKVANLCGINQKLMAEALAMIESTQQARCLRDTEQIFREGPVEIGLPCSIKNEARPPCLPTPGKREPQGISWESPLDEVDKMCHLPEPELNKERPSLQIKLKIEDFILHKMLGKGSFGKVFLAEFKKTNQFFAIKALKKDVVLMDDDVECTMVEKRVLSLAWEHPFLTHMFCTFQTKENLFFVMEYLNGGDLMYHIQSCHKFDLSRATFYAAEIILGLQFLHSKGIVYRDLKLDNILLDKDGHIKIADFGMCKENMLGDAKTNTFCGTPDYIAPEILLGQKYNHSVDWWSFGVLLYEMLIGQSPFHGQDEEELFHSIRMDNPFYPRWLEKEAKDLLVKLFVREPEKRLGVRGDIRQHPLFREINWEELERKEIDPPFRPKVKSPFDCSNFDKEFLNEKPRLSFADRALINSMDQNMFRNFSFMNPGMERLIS
Value kind: log10 IC50 (log10 of the value in nM)
Field: value | Transform: log10 | Quantity: IC50 | Unit: nM

Consider the following illustrative entries.
{"Substance smiles": "Cc1c(Nc2c(C#N)cncc2-c2ccc(OCCCN3CCCCC3)cc2)ccc2[nH]ccc12", "Measured target": "human PKCθ full length enzyme (Homo sapiens, UniProt Q04759)", "Value kind": "log10 IC50", "Recorded measurement": 1.11}
{"Substance smiles": "N#Cc1cncc(-c2cccc(-c3ccc(C(=O)NC4CCCC4)cc3)c2)c1Nc1ccc2[nH]ccc2c1", "Measured target": "human PKCθ full length enzyme (Homo sapiens, UniProt Q04759)", "Value kind": "log10 IC50", "Recorded measurement": 2.26}
{"Substance smiles": "CN(C)S(=O)(=O)c1ccc(-c2cncc(C#N)c2Nc2cccc3[nH]ccc23)cc1", "Measured target": "human PKCθ full length enzyme (Homo sapiens, UniProt Q04759)", "Value kind": "log10 IC50", "Recorded measurement": 2.28}

// input: 3 molecules below; output: log10 IC50 for each
1. Cc1c(Nc2c(C#N)cncc2-c2cnc(CN3CCN(C)CC3)n2C)ccc2[nH]ccc12
2. Cc1c(Nc2c(C#N)cncc2-c2ccc(OCCN3CCN(CCN(C)C)CC3)cc2)ccc2[nH]ccc12
3. Cc1c(Nc2c(C#N)cncc2-c2ccc(CN3CCN(C)CC3)s2)ccc2[nH]ccc12

1.56
1.18
0.78

Go through the items and report each one's log10 IC50.
1. COc1ccc(-c2cncc(C#N)c2Nc2ccc3[nH]ccc3c2)cc1OCCN1CCC(O)CC1
2. COc1ccc(-c2cncc(C#N)c2Nc2cccc3[nH]ccc23)cc1OCCNCCCn1ccnc1

1. 2.32
2. 0.60

====

molecular target: human PKCθ full length enzyme (Homo sapiens, UniProt Q04759); construct: human PKCθ full length enzyme (Panvera Cat# P2996); purchased Panvera P2996; test: PKCθ IMAP assay (fluorescence polarization); format: biochemical; details: human PKCθ full length enzyme, IMAP; average value; read-out: IC50 PKCθ IMAP
Value kind: IC50 (nM)
Give bare numbers, in nM.

Consider the following illustrative entries.
{"Substance smiles": "COc1cc(-c2cncc(C#N)c2Nc2ccc3[nH]ccc3c2C)ccc1OCCN1CCN(C)CC1", "IC50, nM": 10}
{"Substance smiles": "COc1cc(-c2cncc(C#N)c2Nc2ccc3[nH]ccc3c2C)ccc1OCCCl", "IC50, nM": 7}
{"Substance smiles": "COc1ccc(-c2cncc(C#N)c2Nc2ccc3[nH]ccc3c2)cc1Br", "IC50, nM": 10}

Entry "COc1ccc(-c2cncc(C#N)c2Nc2ccc3[nH]c(C)cc3c2C)cc1OC" , system human PKCθ full length enzyme (Homo sapiens, UniProt Q04759): what IC50 was measured? 10

====

biological target: human PKCθ full length enzyme (Homo sapiens, UniProt Q04759); construct: human PKCθ full length enzyme (Panvera Cat# P2996); purchased Panvera P2996; assay: PKCθ IMAP assay (fluorescence polarization); assay type: biochemical; settings: human PKCθ full length enzyme, IMAP; average value; read-out: IC50 PKCθ IMAP
Value kind: IC50 (nM)
One number for each entry, in nM.

Would you mind listing IC50 for each of the following compounds?
1. COc1ccc(-c2cncc(C#N)c2Nc2ccc3[nH]ccc3c2C)cc1
2. Cc1c(Nc2c(C#N)cncc2-c2ccc(CN3CCS(=O)(=O)CC3)o2)ccc2[nH]ccc12
3. Cc1c(Nc2c(C#N)cncc2-c2cc3cc(CO)ccc3s2)ccc2[nH]ccc12

1. 6
2. 16
3. 8

Lab note: need IC50 with human PKCθ full length enzyme (Homo sapiens, UniProt Q04759) for entry "COc1ccc(-c2cncc(C#N)c2Nc2cccc3[nH]ccc23)cc1OCCNCCCN1CCCC1=O" , please look it up. 8

Sourced from patent US7781591B2
